- METHOD NOTES: inducers of Vibrio cholerae quorum light production without autoinducers, primary screen, BH1578 luxS cqsA deficient, single point (AID 588436)
- REPORTED CONDITIONS: V. cholerae BH1578 lux reporter, luminescence, 6 h, at 18.7 µM
About 550 (0.16%) of roughly 350,000 compounds were called active. No stated cut-off is given here; in the data, active means activation mostly above about 9.7% (no sharp cut-off); inconclusive means no clear call, values can overlap the other calls; inactive means mostly below about 3.7%. The list comes from a sample in which actives are over-represented; it also holds close analogues and randomly drawn compounds.
Please state which outcome applies, choosing from true = active, false = inactive

A selection of reference data follows.
> print(dat)
                                   compound  classification
1  COc1ccc(-c2coc3c(C(=O)NC(C)C)cccc23)c(C)c1           false
2  COc1ccc(NC(=O)CN(C)C(=O)CNC(=O)C2CCCCC2)cc1           false
3  CCCNC(=O)C1(C)CCCN(Cc2cccc(C(F)(F)F)c2)C1 (stereo not given)           false

Just curious, what result did CCNc1nc(NCC)nc(N(C)n2cnnc2)n1 get here?
false

Just curious, what result did O=C(C1CC(=O)N(c2ccc(F)cc2)C1)N1CCN(c2ccccc2)CC1 (stereo not given) get here?
false

Just curious, what result did CN(CC1CCCO1)S(=O)(=O)c1ccc(C(=O)Nc2ccc([N+](=O)[O-])cc2)cc1 (stereo not given) get here?
false

Just curious, what result did O=C(CN1CCCCCC1)Nc1ccc(Br)cc1[N+](=O)[O-] get here?
true

Just curious, what result did CN(CC(=O)Nc1ccc(OC(F)(F)F)cc1)C(=O)C1CCC1 get here?
true
